assayed.target: PI3Kγ (Homo sapiens, UniProt P48736)
Sequence (P48736 whole entry, species assumed): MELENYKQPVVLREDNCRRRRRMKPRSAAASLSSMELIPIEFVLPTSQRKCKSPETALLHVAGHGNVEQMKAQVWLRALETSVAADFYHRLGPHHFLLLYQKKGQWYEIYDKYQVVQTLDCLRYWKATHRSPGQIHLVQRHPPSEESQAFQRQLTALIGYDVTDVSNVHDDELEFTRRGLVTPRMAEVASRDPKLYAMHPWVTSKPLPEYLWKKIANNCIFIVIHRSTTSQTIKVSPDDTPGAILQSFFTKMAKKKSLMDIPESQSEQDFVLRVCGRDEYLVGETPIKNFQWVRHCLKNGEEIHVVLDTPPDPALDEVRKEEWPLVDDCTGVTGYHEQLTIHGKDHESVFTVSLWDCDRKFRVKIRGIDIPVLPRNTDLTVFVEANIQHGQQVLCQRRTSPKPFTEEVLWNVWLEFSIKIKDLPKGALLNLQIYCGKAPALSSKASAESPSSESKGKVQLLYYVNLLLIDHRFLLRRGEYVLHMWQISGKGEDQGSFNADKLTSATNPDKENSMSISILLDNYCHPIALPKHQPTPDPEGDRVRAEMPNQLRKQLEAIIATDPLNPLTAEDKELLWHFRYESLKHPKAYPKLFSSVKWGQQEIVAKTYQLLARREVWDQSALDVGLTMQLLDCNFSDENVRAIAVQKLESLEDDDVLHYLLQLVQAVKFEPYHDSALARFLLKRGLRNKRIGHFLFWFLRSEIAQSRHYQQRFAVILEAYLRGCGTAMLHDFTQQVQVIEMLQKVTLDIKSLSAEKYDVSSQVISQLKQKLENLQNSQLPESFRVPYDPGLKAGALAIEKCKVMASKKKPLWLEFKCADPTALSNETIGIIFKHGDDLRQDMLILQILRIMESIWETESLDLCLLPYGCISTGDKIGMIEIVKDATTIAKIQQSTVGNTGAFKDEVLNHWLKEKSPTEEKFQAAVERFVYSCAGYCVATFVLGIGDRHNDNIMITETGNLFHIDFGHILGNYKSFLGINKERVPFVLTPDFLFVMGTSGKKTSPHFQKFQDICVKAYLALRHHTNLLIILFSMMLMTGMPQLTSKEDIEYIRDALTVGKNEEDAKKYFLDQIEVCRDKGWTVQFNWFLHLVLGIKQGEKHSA
protocol.summary: PI3Kγ inhibitory activity (PI3-kinase HTRF assay, inhibition ratio)
Format: biochemical
stated.conditions: 0.5 h, compound at 10 μmol/L; read-out: PI3Kg Inhibition Ratio % (10 μM)
measured.quantity: inhibition at 10 µM (%)
Numbers only, in %.

compound	inhibition at 10 µM (%)
Cc1nc(NC(=O)Nc2ccccc2C(=O)NC(C)C)sc1-c1csc(S(=O)(=O)N(C)CCN(C)C)c1 [Compound I-191]	87

Quick batch: inhibition at 10 µM for everything below.
1. COc1cc(N2CCc3nc(NC(=O)Nc4ccccc4C(=O)NC(C)C)sc3C2)nc(OC)n1 [Compound I-12]
2. COc1cc(N2CCc3nc(NC(=O)Nc4cn(C)nc4C(=O)NCC(F)(F)F)sc3C2)nc(OC)n1 [Compound I-148]
3. CS(=O)(=O)c1cncc(N2CCc3nc(NC(=O)Nc4ccccc4C(=O)NCC#N)sc3C2)c1 [Compound I-210]

-- reply
1: 94; 2: 90; 3: 91

* * *

assayed.target: hERG channel (IKr) (Homo sapiens)
Construct: expressed in transfected cells; host or cells: HEK293
Sequence (Q12809 whole entry): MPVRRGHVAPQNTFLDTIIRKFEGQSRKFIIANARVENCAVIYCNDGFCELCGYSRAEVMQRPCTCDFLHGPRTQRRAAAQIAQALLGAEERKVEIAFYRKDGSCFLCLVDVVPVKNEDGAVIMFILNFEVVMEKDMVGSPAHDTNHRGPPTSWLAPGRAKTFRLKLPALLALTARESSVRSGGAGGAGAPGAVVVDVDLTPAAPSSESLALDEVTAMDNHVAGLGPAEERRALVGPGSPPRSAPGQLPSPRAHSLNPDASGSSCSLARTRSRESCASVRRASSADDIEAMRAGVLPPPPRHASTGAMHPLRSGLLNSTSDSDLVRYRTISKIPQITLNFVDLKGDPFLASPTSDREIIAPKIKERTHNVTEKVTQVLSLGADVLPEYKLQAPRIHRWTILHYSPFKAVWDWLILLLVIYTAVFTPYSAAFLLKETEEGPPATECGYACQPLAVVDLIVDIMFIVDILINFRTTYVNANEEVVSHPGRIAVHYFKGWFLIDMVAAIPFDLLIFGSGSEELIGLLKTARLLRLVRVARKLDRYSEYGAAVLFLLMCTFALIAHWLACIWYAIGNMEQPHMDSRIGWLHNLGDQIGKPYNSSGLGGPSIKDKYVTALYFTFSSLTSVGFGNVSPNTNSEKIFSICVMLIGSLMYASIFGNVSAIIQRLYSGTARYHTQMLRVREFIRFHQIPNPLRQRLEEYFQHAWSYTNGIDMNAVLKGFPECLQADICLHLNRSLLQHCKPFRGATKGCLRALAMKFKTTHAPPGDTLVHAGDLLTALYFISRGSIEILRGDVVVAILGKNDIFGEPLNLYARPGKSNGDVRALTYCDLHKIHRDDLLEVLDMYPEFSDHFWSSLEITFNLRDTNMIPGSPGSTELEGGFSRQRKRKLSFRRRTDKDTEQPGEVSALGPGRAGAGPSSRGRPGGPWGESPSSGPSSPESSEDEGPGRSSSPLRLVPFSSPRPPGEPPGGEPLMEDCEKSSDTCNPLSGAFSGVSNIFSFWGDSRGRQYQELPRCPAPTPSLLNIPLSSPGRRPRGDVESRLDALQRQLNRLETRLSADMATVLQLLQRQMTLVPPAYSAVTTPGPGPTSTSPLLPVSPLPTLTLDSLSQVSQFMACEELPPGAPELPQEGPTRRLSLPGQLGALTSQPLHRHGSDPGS
protocol.summary: hERG test (whole-cell patch-clamp, IKr in HEK293 cells)
Format: cell-based
stated.conditions: human, HEK293 cells expressing hERG channel, pH 7.4, inhibition of maximum tail current (IKr), compound 1 μM
measured.quantity: inhibition at 10 min, 1 µM (%)
Give bare numbers, in %.

Use the examples below as a reference point.
compound	measurement.units	inhibition at 10 min, 1 µM
COc1nc(Cl)cc(N2CCc3nc(NC(=O)Nc4ccccc4C(=O)NC(C)C)sc3C2)n1	%	5.1
COc1cc(N2CCc3nc(NC(=O)Nc4cn(C)nc4C(=O)NCC#N)sc3C2)nc(OC)n1	%	4.7
COc1cc(N2CCc3nc(NC(=O)Nc4ccccc4OC(C)C)sc3C2)nc(OC)n1	%	3.2
COc1cncc(-c2ccc3nc(NC(=O)Nc4ccccc4C(=O)NC(C)C)cn3n2)c1	%	2.4
COc1cc(N2CCc3nc(NC(=O)Nc4cn(C)nc4C(=O)NC4CCOC4)sc3C2)nc(OC)n1 (stereo not drawn)	%	2.7

Quick batch: inhibition at 10 min, 1 µM for everything below.
1. COc1cc(N2CCc3nc(NC(=O)Nc4cn(C)nc4C(=O)NCC(F)(F)F)sc3C2)nc(OC)n1
2. CCNC(=O)c1ccccc1NC(=O)Nc1nc2c(s1)CN(c1cc(OC)nc(OC)n1)CC2
3. CCNC(=O)c1ccncc1NC(=O)Nc1nc2c(s1)CN(c1cnc(OC)c(OC)c1)CC2
4. COc1ccc(N2CCc3nc(NC(=O)Nc4ccccc4C(=O)NC(C)CO)sc3C2)cc1OC (stereo not drawn)

-- reply
1: 3.3; 2: 5.3; 3: 3.6; 4: 5.4

* * *

assayed.target: PI3Kγ (Homo sapiens, UniProt P48736)
protocol.summary: PI3Kγ inhibitory activity (PI3-kinase HTRF assay, inhibition ratio)
Format: biochemical
stated.conditions: 0.5 h, compound at 10 μmol/L; read-out: PI3Kg Inhibition Ratio % (10 μM)
measured.quantity: inhibition at 10 µM

Use the examples below as a reference point.
compound	inhibition at 10 µM
Cc1cc(N2Cc3sc(NC(=O)Nc4ccccc4C(=O)NC(C)C)nc3C(C)C2)nc(Cl)n1 (centres unmarked)	≥ 95%
COc1nccc(N2CCc3nc(NC(=O)Nc4ccccc4OCCC(C)C)sc3C2)n1	≥ 95%
COc1cc(N2CCc3nc(NC(=O)Nc4cn(C)nc4C(=O)NC(CO)CO)sc3C2)nc(OC)n1	≥ 95%

Quick batch: inhibition at 10 µM for everything below.
1. COc1cc(N2CCc3nc(NC(=O)Nc4ccccc4C(=O)NC(C)CN(C)C)sc3C2)nc(OC)n1 (centres unmarked)
2. COc1cc(N2CCc3nc(NC(=O)Nc4ccccc4C(=O)NCCF)sc3C2)nc(OC)n1
3. COc1cc(N2CCc3nc(NC(=O)Nc4ccccc4C(=O)N4CCCCC4)sc3C2)nc(OC)n1
4. COc1cc(N2CCc3nc(NC(=O)Nc4ccccc4C(C)=O)sc3C2)nc(OC)n1
5. COc1cc(N2CCc3nc(NC(=O)Nc4ccccc4C(=O)NC4CCCCC4O)sc3C2)nc(OC)n1 (centres unmarked)

-- reply
1: ≥ 95%; 2: ≥ 95%; 3: 93%; 4: 93%; 5: ≥ 95%

* * *

System: AKT phosphorylation
protocol.summary: AKT phosphorylation inhibitory activity in MCP-1 stimulated THP-1 cells (sandwich ELISA)
Type: cell-based, Human
stated.conditions: Homo sapiens, compound at 1 μmol/L, MCP-1 stimulation, read-out: AKT phosphorylation inhibition ratio
Can you tell me inhibition at 1 µM for the items I'm about to list?
Answers are plain numbers, in %.

compound	assayed.target	measurement.units	val
Cc1nc(NC(=O)Nc2ccccc2C(=O)NC(C)C)sc1-c1csc(S(=O)(=O)N(C)CCN(C)C)c1	AKT phosphorylation	%	93

Quick batch: inhibition at 1 µM for everything below.
1. CC(C)NC(=O)c1ccccc1NC(=O)Nc1nc2c(s1)CN(c1cncc(C#N)c1)CC2
2. COc1cc(N2CCc3nc(NC(=O)Nc4cn(C)nc4C(=O)NC(CO)CO)sc3C2)nc(OC)n1
3. COc1cc(N2CCc3nc(NC(=O)Nc4ccccc4C(=O)NC4CCOC4)sc3C2)nc(OC)n1 (stereo not drawn)
4. COc1nc(Cl)cc(N2CCc3nc(NC(=O)Nc4ccccc4C(=O)NC4CCCC4O)sc3C2)n1 (stereo not drawn)
5. CC(C)NC(=O)c1nn(C)cc1NC(=O)Nc1nc2c(s1)CN(c1cncc(C#N)c1)CC2

-- reply
1: 84; 2: 80; 3: 89; 4: 81; 5: 90

* * *

assayed.target: PI3Kδ (Homo sapiens, UniProt O00329)
Sequence (O00329 whole entry, species assumed): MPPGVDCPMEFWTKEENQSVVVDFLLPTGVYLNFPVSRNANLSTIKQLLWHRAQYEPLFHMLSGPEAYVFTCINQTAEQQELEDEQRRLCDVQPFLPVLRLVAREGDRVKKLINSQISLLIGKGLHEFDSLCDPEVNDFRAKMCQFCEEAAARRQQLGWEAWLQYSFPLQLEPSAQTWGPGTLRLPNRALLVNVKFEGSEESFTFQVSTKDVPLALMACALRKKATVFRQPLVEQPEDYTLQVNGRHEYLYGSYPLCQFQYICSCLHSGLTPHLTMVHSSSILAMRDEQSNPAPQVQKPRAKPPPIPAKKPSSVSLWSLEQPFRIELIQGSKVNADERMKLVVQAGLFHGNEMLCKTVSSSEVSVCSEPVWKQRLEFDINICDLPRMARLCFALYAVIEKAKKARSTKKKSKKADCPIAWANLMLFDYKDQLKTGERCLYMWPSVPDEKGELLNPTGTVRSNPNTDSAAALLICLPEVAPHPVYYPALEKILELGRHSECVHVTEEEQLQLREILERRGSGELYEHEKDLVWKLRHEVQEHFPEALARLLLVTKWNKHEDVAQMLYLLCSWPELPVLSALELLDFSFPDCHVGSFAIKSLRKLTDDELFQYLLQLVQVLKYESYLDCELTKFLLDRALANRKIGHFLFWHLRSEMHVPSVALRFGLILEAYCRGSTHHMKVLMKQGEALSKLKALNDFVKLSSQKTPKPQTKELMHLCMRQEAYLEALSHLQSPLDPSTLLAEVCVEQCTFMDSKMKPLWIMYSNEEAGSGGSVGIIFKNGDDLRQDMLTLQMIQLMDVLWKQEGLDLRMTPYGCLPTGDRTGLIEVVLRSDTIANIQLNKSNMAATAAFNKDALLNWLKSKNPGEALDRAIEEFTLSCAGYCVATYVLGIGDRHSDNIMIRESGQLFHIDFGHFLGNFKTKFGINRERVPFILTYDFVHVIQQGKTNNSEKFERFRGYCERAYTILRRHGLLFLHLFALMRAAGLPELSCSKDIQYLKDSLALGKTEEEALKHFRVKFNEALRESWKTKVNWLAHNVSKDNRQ
Sequence (P27986 whole entry partner, species assumed): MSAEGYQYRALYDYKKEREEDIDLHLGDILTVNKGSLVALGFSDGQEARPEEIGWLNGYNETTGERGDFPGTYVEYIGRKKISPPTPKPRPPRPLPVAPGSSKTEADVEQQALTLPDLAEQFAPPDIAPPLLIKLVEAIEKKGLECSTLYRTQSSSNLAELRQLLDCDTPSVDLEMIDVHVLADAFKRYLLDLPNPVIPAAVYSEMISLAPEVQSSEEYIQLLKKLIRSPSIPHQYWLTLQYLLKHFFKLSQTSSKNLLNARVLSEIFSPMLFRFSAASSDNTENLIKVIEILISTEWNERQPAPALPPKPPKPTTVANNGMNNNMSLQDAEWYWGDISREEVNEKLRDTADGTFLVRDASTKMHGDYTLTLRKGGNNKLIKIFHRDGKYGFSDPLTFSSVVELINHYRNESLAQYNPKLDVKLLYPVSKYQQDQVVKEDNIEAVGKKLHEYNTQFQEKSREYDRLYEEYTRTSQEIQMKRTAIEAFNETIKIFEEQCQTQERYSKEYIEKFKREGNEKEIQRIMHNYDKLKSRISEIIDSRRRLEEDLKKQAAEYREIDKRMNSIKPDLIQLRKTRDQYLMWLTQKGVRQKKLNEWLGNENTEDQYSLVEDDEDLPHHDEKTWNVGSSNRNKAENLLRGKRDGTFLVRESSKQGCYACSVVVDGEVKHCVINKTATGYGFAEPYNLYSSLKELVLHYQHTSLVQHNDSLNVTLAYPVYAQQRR
protocol.summary: PI3Kδ inhibitory activity (Ki value)
Format: biochemical
stated.conditions: class symbols; read-out: PI3K δ Ki
Experimental: According to Example 2 above, after 80 μg/mL PI-3 kinase γ of the enzyme solution (80 μg/mL PI-3 kinase γ, 10 mmol/L MgCl2, 5 mmol/L DTT) was changed to 158 μg/mL PI-3 kinase δ, a method similar to the method for measuring PI3Kγ inhibitory activity was used to calculate an inhibition ratio, which was defined as the PI3Kδ inhibitory activity. According to Example 4 above, a Km value for PI3Kδ was determined to calculate a Ki value.
pKi: −log10 of the molar value.
Can you tell me pKi for the items I'm about to list?

molecule	assayed.target	pKi
CC(C)NC(=O)c1ccccc1NC(=O)Nc1nc2c(s1)CN(c1cncc(C(F)(F)F)c1)CC2 [Compound I-131]	PI3Kδ (Homo sapiens, UniProt O00329)	< 5.52
C[C@@H](CO)NC(=O)c1ccccc1NC(=O)Nc1nc2c(s1)CN(c1cc[nH]c(=O)c1)CC2 [Compound I-183]	PI3Kδ (Homo sapiens, UniProt O00329)	< 5.52
CC(C)CCOc1ccccc1NC(=O)Nc1cn2nc(-c3cccc(S(C)(=O)=O)c3)ccc2n1 [Compound I-126]	PI3Kδ (Homo sapiens, UniProt O00329)	≥ 5.52
COc1cc(N2CCc3nc(NC(=O)Nc4cn(C)nc4C(=O)NCC(F)(F)F)sc3C2)nc(OC)n1 [Compound I-148]	PI3Kδ (Homo sapiens, UniProt O00329)	≥ 6.52
COc1cc(N2CCc3nc(NC(=O)NC4=C(C(=O)NC(C)(C)C)CCC4)sc3C2)nc(OC)n1 [Compound I-28]	PI3Kδ (Homo sapiens, UniProt O00329)	≥ 5.52
CC(C)NC(=O)c1ccccc1NC(=O)Nc1cn2nc(-c3cccc(S(C)(=O)=O)c3)ccc2n1 [Compound I-125]	PI3Kδ (Homo sapiens, UniProt O00329)	≥ 6.52

# next molecule below
-- ask Quick one: pKi of CC(C)CCOc1ccccc1NC(=O)Nc1cc2n(n1)CCN2c1ccc2c(c1)CCN(C)C2=O [Compound I-112] ?
-- reply ≥ 5.52

* * *

Can you tell me pKi for the items I'm about to list?
assayed.target: PI3Kδ (Homo sapiens)
protocol.summary: PI3Kδ inhibitory activity (Ki value)
Assay type: biochemical
stated.conditions: class symbols; read-out: PI3K δ Ki
pKi: −log10 of the molar value.

Use the examples below as a reference point.
compound	assayed.target	pKi
COc1cc(N2CCc3nc(NC(=O)Nc4ccccc4C(=O)NC(C)C)sc3C2)nc(OC)n1	PI3Kδ (Homo sapiens)	≥ 5.52
CC(C)CCc1ccccc1NC(=O)Nc1cc2n(n1)CCN2c1ccc2c(c1)CCN(C)C2=O	PI3Kδ (Homo sapiens)	≥ 5.52
COc1cncc(-c2cc(NC(=O)Nc3ccccc3C(=O)NC(C)C)nn2C)c1	PI3Kδ (Homo sapiens)	≥ 5.52

# next compound below
-- ask Any idea what pKi came out for Cc1cc(N2Cc3sc(NC(=O)Nc4ccccc4C(=O)NC(C)C)nc3C(C)C2)nc(Cl)n1 (stereo not shown) on PI3Kδ (Homo sapiens)?
-- reply < 5.52
